All figures here come from a melting point compilation (Tetko et al.; mined from patent text by program, amines drawn as free bases though some values may be those of a salt).

- Compound: "CCCOc1ccc(C)cc1-c1nc2c(CCC)nn(C)c2c(=O)[nH]1"
  melting point: "115 to 116 °C"
- Compound: "Cc1nc2c(N)nc3ccccc3c2n1CCOCCNS(C)(=O)=O"
  melting point: "152 to 155 °C"
- Compound: "Cc1ccc(S(=O)(=O)C2(CCCC#Cc3cccnc3)SC(=O)NC2=O)cc1 (centres undefined)"
  melting point: "173 to 176 °C"
- Compound: "CCCCCCCN(CCCCCSc1nc2ncccc2[nH]1)C(=O)NC(C)C"
  melting point: "101 to 102 °C"
- Compound: "COC(=O)Nc1cc2c(cn1)[nH]c1ccccc12"
  melting point: "180 to 182 °C"
- Compound: "CONC(=O)C=C1SC(Nc2c(Cl)cccc2Cl)=NC1=O"
  melting point: "205 to 206 °C"
- Compound: "CC(C)=CCn1c(N2CCC(N)C2)nc2c1c(=O)n(C)c(=O)n2C (centres undefined)"
  melting point: "119 °C"
- Compound: "COc1ccc(-c2cnc3cc4cn(CCOC(C)=O)nc4cc3n2)cc1F"
  melting point: "175 to 178 °C"
- Compound: "O=C(c1cc(-c2ccc(OCc3ccccc3)cc2)c(=O)n2ccc3ccsc3c12)N(CCN1CCOCC1)c1ccccc1"
  melting point: "168 to 170 °C"
- Compound: "CC1=C(C(=O)OCC2CCCO2)C(c2cccc([N+](=O)[O-])c2)C(C(=O)OCC2CCCO2)=C(C)N1 (centres undefined)"
  melting point: "122 to 123 °C"
- Compound: "COC(=O)C(C)(C)C(Cc1ccc(OC)cc1)NS(=O)(=O)c1ccc(C)cc1 (centres undefined)"
  melting point: "126 to 127 °C"
- Compound: "Cc1cn(-c2ccc(N)cc2)cn1"
  melting point: "122 to 125 °C"
- Compound: "O=C1C=C(NC(=O)C(=O)c2cn(Cc3ccc(Cl)cc3)c3cccc(CO)c23)CO1"
  melting point: "238 to 240 °C"
- Compound: "O=C(c1ccc(-c2cc[nH]n2)cc1)N1Cc2cccn2Cc2ccccc21"
  melting point: "219 to 221 °C"
- Compound: "CCCCC1(C2CCCC2)Cc2cc(OC)c(Cl)c(Cl)c2C1=O (centres undefined)"
  melting point: "122 to 123 °C"
- Compound: "CC(C)(C)c1ccc(CCC(O)CCC2CCCCCC2)cc1NC(=O)CC1c2ccccc2Oc2ccccc21 (centres undefined)"
  melting point: "146 to 147 °C"
- Compound: "CC(C)(COc1ccc(Cl)cc1)C(=O)C(Oc1ccc(Cl)cc1)n1cncn1 (centres undefined)"
  melting point: "206 to 208 °C"
- Compound: "CC(O)Cc1cccc(S(N)(=O)=O)c1 (centres undefined)"
  melting point: "149 to 150 °C"
- Compound: "COc1cc(N)c(Cl)cc1C(=O)N[C@H]1CCN(CCNC(=O)N(C)C)C[C@H]1OC (relative stereo)"
  melting point: "206 °C"
